# studyTarget: HIV-1 IAVI-C18 Env (clade C pseudovirus) (HIV-1)
# testDescription: cell-based or functional assay
measure: IC50 (µg/mL), pseudovirus neutralization

Indicate its recorded IC50 (µg/mL), pseudovirus neutralization; the binder in question is 1495_C14 (PGC14) (antibody, human IgG1, lambda, V domains shown) VH: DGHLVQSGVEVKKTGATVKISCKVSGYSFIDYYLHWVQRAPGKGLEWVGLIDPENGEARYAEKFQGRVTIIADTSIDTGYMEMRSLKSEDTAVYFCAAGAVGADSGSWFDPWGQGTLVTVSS VL: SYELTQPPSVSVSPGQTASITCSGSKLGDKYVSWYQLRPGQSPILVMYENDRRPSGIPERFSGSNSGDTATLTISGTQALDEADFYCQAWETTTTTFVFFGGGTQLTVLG > 50 µg/mL
